Test system: recombinant human CRTH2 receptor (Homo sapiens, UniProt Q9Y5Y4)
Construct: expressed in transfected cells
Sequence (Q9Y5Y4 1-395): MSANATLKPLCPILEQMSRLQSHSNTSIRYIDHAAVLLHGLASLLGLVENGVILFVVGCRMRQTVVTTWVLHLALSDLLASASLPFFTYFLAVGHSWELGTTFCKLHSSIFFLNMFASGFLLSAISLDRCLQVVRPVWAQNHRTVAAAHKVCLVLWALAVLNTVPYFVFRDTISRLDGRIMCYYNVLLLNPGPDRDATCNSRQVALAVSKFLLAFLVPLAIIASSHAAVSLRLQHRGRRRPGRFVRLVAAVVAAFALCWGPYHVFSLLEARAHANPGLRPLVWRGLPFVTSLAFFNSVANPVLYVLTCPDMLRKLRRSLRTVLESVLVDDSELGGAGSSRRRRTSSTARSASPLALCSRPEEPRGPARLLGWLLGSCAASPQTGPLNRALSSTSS
Test summary: GTPγS binding assay
Assay type: biochemical
Setup conditions: +HSA; read-out: hDP2 GTPγS μM (+HSA)
Each entry below carries its recorded IC50.

COc1ccc(CC(=O)O)cc1Oc1cc(Br)ccc1CN1C(=O)O[C@H](c2ccccc2)[C@@H]1C [Compound 1-81]    < 0.3 µM

Ask: Form field: reported IC50 of C[C@H]1[C@@H](c2ccccc2)OC(=O)N1Cc1cc(-c2cncn2C)ccc1Oc1cccc(CC(=O)O)c1 [Compound 1-22]
Result: > 1 µM

Ask: Try this molecule next: COc1ccc(CC(=O)O)cc1Oc1ccc(-c2ccncc2)cc1CN1C(=O)O[C@H](c2ccccc2)[C@@H]1C [Compound 1-41]
Result: 0.3 to 1 µM

Ask: What about COc1ccc(CC(=O)O)cc1Oc1ccc(-c2cnn(C)c2)cc1CN1C(=O)O[C@@H](c2ccccc2)[C@H]1C [Compound 1-66] ?
Result: < 0.3 µM

Ask: Next molecule: C[C@@H]1[C@H](c2ccccc2)OC(=O)N1Cc1cc(C(F)(F)F)ccc1Oc1cc(CC(=O)O)ccc1-c1ccccc1 [Compound 1-80]
Result: < 0.3 µM

Ask: And what about the molecule Cc1nc(C)c(-c2ccc(Oc3cccc(CC(=O)O)c3)c(CN3C(=O)O[C@H](c4ccccc4)[C@@H]3C)c2)s1 [Compound 1-75] ?
Result: 0.3 to 1 µM

Ask: Can you check Cc1noc(C)c1-c1ccc(Oc2cccc(CC(=O)O)c2)c(CN2C(=O)O[C@H](c3ccccc3)[C@@H]2C)c1 [Compound 1-76] next?
Result: 0.3 to 1 µM

Ask: Next: O=C(O)Cc1cccc(Oc2ccc(Br)cc2CN2C(=O)OC[C@@H]2c2ccccc2)c1 [Compound 1-45]
Result: < 0.3 µM

Ask: Entry C[C@@H]1[C@H](c2ccccc2)OC(=O)N1Cc1cc(Br)ccc1Oc1cc(CC(=O)O)ccc1O [Compound 1-87] please
Result: < 0.3 µM

Ask: Quick one: COc1ccc(CC(=O)O)cc1Oc1ccc(Br)cc1CN1C(=O)O[C@@H](c2ccccc2)[C@H]1C [Compound 1-60]
Result: < 0.3 µM

Ask: Same question for COc1ccc(-c2ccc(Oc3cc(CC(=O)O)ccc3OC)c(CN3C(=O)O[C@H](c4ccccc4)[C@@H]3C)c2)cc1 [Compound 1-39] please.
Result: > 1 µM

Ask: How about this molecule: COc1ccc(CC(=O)O)cc1Oc1ccc(Br)cc1CN1C(=O)O[C@@H]2Cc3ccccc3[C@@H]21 [Compound 2-5]
Result: < 0.3 µM

Ask: What do we get for COc1ccc(CC(=O)O)cc1Oc1ccc(Br)cc1CN1C(=O)O[C@@H](c2cc(F)cc(F)c2)[C@H]1C [Compound 1-63] ?
Result: < 0.3 µM

Ask: Next record, please: COc1ccc(C(C)C(=O)O)cc1Oc1ccc(C(F)(F)F)cc1CN1C(=O)O[C@H](c2ccccc2)[C@@H]1C (some centres unmarked) [Compound 1-44]
Result: 0.3 to 1 µM

====

Test system: human DP1 receptor (Homo sapiens, UniProt Q13258)
Sequence (Q13258 whole entry): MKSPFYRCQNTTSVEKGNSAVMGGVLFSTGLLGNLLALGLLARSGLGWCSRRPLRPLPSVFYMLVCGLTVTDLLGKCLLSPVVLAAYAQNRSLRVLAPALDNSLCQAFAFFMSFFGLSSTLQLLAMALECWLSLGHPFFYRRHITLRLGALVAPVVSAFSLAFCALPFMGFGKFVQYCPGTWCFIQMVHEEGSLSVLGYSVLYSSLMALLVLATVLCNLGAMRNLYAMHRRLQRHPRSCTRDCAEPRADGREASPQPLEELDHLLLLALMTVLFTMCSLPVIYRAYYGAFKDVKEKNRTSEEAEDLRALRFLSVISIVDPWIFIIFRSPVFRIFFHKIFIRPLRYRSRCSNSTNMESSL
pIC50: −log10 of the molar value.
Catalogue of pIC50 readings, one per entry.

The cases that follow already have their pIC50 on record.
CCNC(=O)c1ccc(Oc2cc(CC(=O)O)ccc2OC)c(CN2C(=O)O[C@@H](c3ccccc3)[C@H]2C)c1    < 6.00
C[C@H]1[C@@H](c2ccccc2)OC(=O)N1Cc1cc(Br)ccc1Oc1cc(F)cc(CC(=O)O)c1    > 6.52
Cc1noc(C)c1-c1ccc(Oc2cccc(CC(=O)O)c2)c(CN2C(=O)O[C@H](c3ccccc3)[C@@H]2C)c1    > 6.52
Cc1ncc(-c2ccc(Oc3cccc(CC(=O)O)c3)c(CN3C(=O)O[C@H](c4ccccc4)[C@@H]3C)c2)[nH]1    < 6.00
C[C@@H]1[C@H](c2ccccc2)OC(=O)N1Cc1cc(Br)ccc1Oc1cc(Cl)cc(CC(=O)O)c1    < 6.00
COc1ccc(CC(=O)O)cc1Oc1ccc(Br)cc1CN1C(=O)O[C@@H](c2cc(F)cc(F)c2)[C@H]1C    < 6.00

Attention now turns to another entry.
Ask: Form field: reported pIC50 of COc1ccc(CC(=O)O)cc1Oc1ccc(-c2cccnc2)cc1CN1C(=O)O[C@H](c2ccccc2)[C@@H]1C
Result: < 6.00

====

Test system: recombinant human CRTH2 receptor (Homo sapiens, UniProt Q9Y5Y4)
Construct: expressed in transfected cells
Test summary: GTPγS binding assay
Format: biochemical
Setup conditions: +HSA; read-out: hDP2 GTPγS μM (+HSA)
Reported endpoint: IC50

Some compounds with recorded IC50:
COc1cccc(-c2ccc(Oc3cc(CC(=O)O)ccc3OC)c(CN3C(=O)O[C@H](c4ccccc4)[C@@H]3C)c2)c1    0.3 to 1 µM
COc1ccc(CC(=O)O)cc1Oc1ccc(NC(=O)c2ccc(Cl)cc2)cc1CN1CCOC1=O    > 1 µM
CCOc1ccc(CC(=O)O)cc1Oc1ccc(C(F)(F)F)cc1CN1C(=O)O[C@@H](c2ccccc2)[C@H]1C    < 0.3 µM
C[C@@H]1[C@H](c2ccccc2)OC(=O)N1Cc1cc(Br)ccc1Oc1cc(Cl)cc(CC(=O)O)c1    < 0.3 µM
COc1ccc(CC(=O)O)cc1Oc1ccc(Cl)cc1CN1C(=O)O[C@H](c2ccccc2)[C@@H]1C    < 0.3 µM

Ask: Which IC50 reading was recorded for the compound O=C(O)Cc1cccc(Oc2ccc(Br)cc2CN2C(=O)O[C@@H]3Cc4ccccc4[C@@H]32)c1 ?
Result: < 0.3 µM

Ask: Check COc1ccc(CC(=O)O)cc1Oc1ccc(Br)cc1CN1C(=O)O[C@H]2Cc3ccccc3[C@H]21 too.
Result: < 0.3 µM

Ask: Next entry: O=C(O)Cc1cccc(Oc2ccc(C(F)(F)F)cc2CN2CCOC2=O)c1
Result: < 0.3 µM

Ask: And the next one, COc1ccc(CC(=O)O)cc1Oc1ccc(C(F)(F)F)cc1CN1CCOC1=O ?
Result: < 0.3 µM

Ask: Another compound to look at: C[C@H]1[C@@H](c2ccccc2)OC(=O)N1Cc1cc(C(F)(F)F)ccc1Oc1cccc(CC(=O)O)c1
Result: 0.3 to 1 µM

Ask: What about COc1ccc(CC(=O)O)cc1Oc1cc(Br)ccc1CN1C(=O)O[C@@H](c2ccccc2)[C@H]1C ?
Result: < 0.3 µM

Ask: Follow-up entry: COc1ccc(CC(=O)O)cc1Oc1ccc(S(C)(=O)=O)cc1CN1C(=O)O[C@H](c2ccccc2)[C@@H]1C
Result: > 1 µM

====

Test system: recombinant human CRTH2 receptor (Homo sapiens, UniProt Q9Y5Y4)
Construct: expressed in transfected cells
Test summary: GTPγS binding assay
Format: biochemical
Setup conditions: +HSA; read-out: hDP2 GTPγS μM (+HSA)
In this section, each of the molecules is paired with its reported IC50.

Ask: I have this molecule here, C[C@H]1[C@@H](c2cc(F)cc(F)c2)OC(=O)N1Cc1cc(Br)ccc1Oc1cccc(CC(=O)O)c1 , and I need its recorded IC50.
Result: < 0.3 µM

Ask: Entry O=C(O)Cc1cc(Oc2ccc(C(F)(F)F)cc2CN2CCOC2=O)ccc1-c1ccccc1 please
Result: 0.3 to 1 µM

Ask: // next record COc1ccc(CC(=O)O)cc1Oc1ccc(-c2ccccc2)cc1CN1C(=O)O[C@H](c2ccccc2)[C@@H]1C
Result: > 1 µM

====

# pIC50 per entry
Protein target, amino acids: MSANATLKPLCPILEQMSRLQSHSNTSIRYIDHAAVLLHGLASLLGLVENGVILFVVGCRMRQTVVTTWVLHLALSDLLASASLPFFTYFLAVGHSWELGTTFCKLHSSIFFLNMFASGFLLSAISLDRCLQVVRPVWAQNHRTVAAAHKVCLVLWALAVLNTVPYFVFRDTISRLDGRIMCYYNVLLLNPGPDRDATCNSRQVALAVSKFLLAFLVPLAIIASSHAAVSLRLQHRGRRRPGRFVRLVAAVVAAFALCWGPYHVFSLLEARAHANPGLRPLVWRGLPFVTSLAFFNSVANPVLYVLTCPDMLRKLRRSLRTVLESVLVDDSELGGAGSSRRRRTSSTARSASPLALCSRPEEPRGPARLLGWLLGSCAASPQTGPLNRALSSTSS
pIC50: −log10 of the molar value.

Here's what some known entries look like.
COc1ccc(CC(=O)O)cc1Oc1ccc(NS(=O)(=O)c2ccc(Cl)cc2)cc1CN1CCOC1=O    > 6.52
CC(C)(C(=O)O)c1cccc(Oc2ccc(C(F)(F)F)cc2CN2CCOC2=O)c1    < 6.00
C[C@H]1[C@@H](c2cc(F)cc(F)c2)OC(=O)N1Cc1cc(Br)ccc1Oc1cccc(CC(=O)O)c1    > 6.52
O=C(O)CCn1c2c(c3ccccc31)C[C@H](NS(=O)(=O)c1ccc(F)cc1)CC2 [Ramatroban, reference compound]    6.00 to 6.52
COc1ccc(CC(=O)O)cc1Oc1cc(Br)ccc1CN1C(=O)O[C@@H](c2ccccc2)[C@H]1C    > 6.52
C[C@@H]1[C@H](c2ccccc2)OC(=O)N1Cc1cc(Br)ccc1Oc1cccc(CC(=O)O)c1    > 6.52
COc1ccc(CC(=O)O)cc1Oc1ccc(-c2ccncc2)cc1CN1C(=O)O[C@H](c2ccccc2)[C@@H]1C    > 6.52
C[C@H]1[C@@H](c2ccccc2)OC(=O)N1Cc1cc(Br)ccc1Oc1cccc(CC(=O)O)c1    > 6.52

Ask: I would be grateful if you could share the reported pIC50 for O=C(O)Cc1cccc(Oc2ccc(Br)cc2CN2CCOC2=O)c1 .
Result: > 6.52

Ask: Would you kindly repeat that for COc1ccc(CC(=O)O)cc1Oc1ccc(Br)cc1CN1CCOC1=O ?
Result: > 6.52

Ask: Try this compound too: Cc1ccc(Oc2cccc(CC(=O)O)c2)c(CN2CCOC2=O)c1
Result: 6.00 to 6.52

Ask: Next record, please: O=C(O)Cc1cc(Oc2ccc(C(F)(F)F)cc2CN2CCOC2=O)ccc1Br
Result: < 6.00

Ask: Field entry: COc1ccc(CC(=O)O)cc1Oc1ccc(C(F)(F)F)cc1CN1C(=O)O[C@@H](c2ccccc2)[C@H]1C
Result: > 6.52

Ask: Record: C[C@@H]1[C@H](c2ccccc2)OC(=O)N1Cc1cc(Br)ccc1Oc1cc(Cl)cc(CC(=O)O)c1
Result: > 6.52

Ask: And COc1ccc(CC(=O)O)cc1Oc1ccc(-c2ccccc2OC)cc1CN1C(=O)O[C@H](c2ccccc2)[C@@H]1C ?
Result: > 6.52

Ask: Similarly, COc1ccc(CC(=O)O)cc1Oc1ccc(-c2cnn(C)c2)cc1CN1CCOC1=O ?
Result: > 6.52
